CC50 values, listed per item
- test summary: in vitro
- condition parameters: human, CC50
value kind: CC50

* N#Cc1ccc(Nc2ncc(F)c(Oc3ccc(-c4ccncc4)cc3F)n2)cc1 | > 50 µM
* COc1cc(-c2ccc(C#N)cc2)ccc1Oc1nc(Nc2ccc(C#N)cc2)ncc1Cl | 11 µM
* Cc1cc(-c2ccncc2)cc(C)c1Oc1nc(Nc2ccc(C#N)cc2)ncc1F | > 49 µM
* COc1cc(-c2ccncc2)ccc1Nc1nc(Nc2ccc(C#N)cc2)ncc1F | > 49 µM
* Cc1cc(-c2ccncc2)ccc1Nc1nc(Nc2ccc(C#N)cc2)ncc1F | > 51 µM
* N#Cc1ccc(Nc2ncc(F)c(Nc3ccc(-c4ccc(C#N)cc4)cc3Cl)n2)cc1 | > 45 µM

====

- target or test system: CYP2D6 (Homo sapiens)
- Construct: An incubation system of human liver microsomes (20 μL, 1.5 mg/mL); from tissue; host or cells: human liver microsomes
- Sequence (P10635 whole entry): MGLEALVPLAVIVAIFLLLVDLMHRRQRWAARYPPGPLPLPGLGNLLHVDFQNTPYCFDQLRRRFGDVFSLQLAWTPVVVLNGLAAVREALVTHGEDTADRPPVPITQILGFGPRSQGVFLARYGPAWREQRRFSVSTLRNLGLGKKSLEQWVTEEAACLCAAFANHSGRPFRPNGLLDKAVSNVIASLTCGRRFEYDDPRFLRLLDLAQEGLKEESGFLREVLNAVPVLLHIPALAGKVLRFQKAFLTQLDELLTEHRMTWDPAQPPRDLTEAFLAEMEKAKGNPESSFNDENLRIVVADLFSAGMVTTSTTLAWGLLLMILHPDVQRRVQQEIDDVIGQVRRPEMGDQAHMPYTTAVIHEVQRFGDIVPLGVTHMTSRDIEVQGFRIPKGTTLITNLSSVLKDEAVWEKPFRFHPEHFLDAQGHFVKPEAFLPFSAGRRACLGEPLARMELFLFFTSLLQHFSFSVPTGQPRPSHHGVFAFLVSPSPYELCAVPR
- test summary: CYP enzyme inhibition assay, CYP2D6
- Assay type: in vitro ADME
- condition parameters: IC50 CYP2D6, human liver microsomes
value kind: IC50 (nM)

- COc1ccc2c(c1)[C@]13CCCC[C@@H]1[C@H](C2)N(C)CC3 [Dextromethorphan, reference compound]: 224

====

pIC50 values, listed per item
- target or test system: WT HIV-1 RT (Human immunodeficiency virus type 1 group M subtype B)
pIC50: −log10 of the molar value.
value kind: pIC50

- N#Cc1ccc(Nc2ncc(F)c(Nc3c(F)cc(-c4ccc(C#N)cc4)cc3F)n2)cc1: 7.57
- N#Cc1ccc(Nc2ncc(Cl)c(Nc3c(F)cc(-c4ccc(C#N)cc4)cc3F)n2)cc1: 7.51
- N#Cc1ccc(Nc2ncc(F)c(Nc3ccc(-c4ccc(C#N)cc4)cc3F)n2)cc1: 7.55
- Cc1cc(-c2ccc(C#N)cc2)cc(C)c1Nc1nc(Nc2ccc(C#N)cc2)ncc1Cl: 7.28
- Cc1cc(-c2ccncc2)cc(C)c1Nc1nc(Nc2ccc(C#N)cc2)ncc1F: 7.41

====

- test summary: Human liver microsomal stability assay
- Assay type: in vitro ADME
- condition parameters: human liver microsomes, scaled to liver
value kind: CLint scaled at 1 μmol/L (mL/min/kg)

• Cc1cc(-c2ccc(C#N)cc2)cc(C)c1Nc1nc(Nc2ccc(C#N)cc2)ncc1F = 51.3

====

- target or test system: CYP2C9 (Homo sapiens, UniProt P11712)
- Sequence (P11712 whole entry): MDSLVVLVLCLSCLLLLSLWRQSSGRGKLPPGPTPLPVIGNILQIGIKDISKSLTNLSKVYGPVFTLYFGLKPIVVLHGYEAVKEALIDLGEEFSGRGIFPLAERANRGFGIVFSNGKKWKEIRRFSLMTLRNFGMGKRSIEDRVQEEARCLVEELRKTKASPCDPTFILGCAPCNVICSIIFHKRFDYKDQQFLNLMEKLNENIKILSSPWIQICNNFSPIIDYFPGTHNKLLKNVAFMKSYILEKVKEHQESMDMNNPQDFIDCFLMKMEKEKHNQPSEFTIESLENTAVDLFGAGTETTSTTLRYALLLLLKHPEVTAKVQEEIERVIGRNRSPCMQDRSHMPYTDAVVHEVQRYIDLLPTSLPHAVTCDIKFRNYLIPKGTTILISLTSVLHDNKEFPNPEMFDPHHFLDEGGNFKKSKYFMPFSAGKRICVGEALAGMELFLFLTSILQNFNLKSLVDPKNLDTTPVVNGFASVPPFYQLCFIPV
pIC50: −log10 of the molar value.
value kind: pIC50

- Cc1cc(-c2ccc(C#N)cc2)cc(C)c1Nc1nc(Nc2ccc(C#N)cc2)ncc1F [A12]: 5.16
